Reference source for all entries: the supplement of paper PMC10567573

B1: WEE1 (parent)
chain: FISRTSIPNAASEEGDEDDWASNK

variants of: B1; assay: protein stability index of a GFP-peptide fusion (GPS, HEK-293T) (PSI 1-6); higher = more stable; conditions: c terminus: a fixed tail appended;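 also: lentivirally expressed fusions sorted by FACS into six bins by GFP to DsRed ratio, PSI derived from sequencing read proportions per bin multiplied by bin number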
Parameter measured: protein stability index
Output: the number by itself.

Some entries whose results are on file:
[
  {
    "Variant identifier": "S22Q",
    "Result value": 3.9
  },
  {
    "Variant identifier": "A11P",
    "Result value": 3.95
  }
]

Query block: What does the record list as protein stability index for "E14Q" ?
Result block: 3.91
